B1: library; a variant is named by its letters at N, in order (parent)
chain: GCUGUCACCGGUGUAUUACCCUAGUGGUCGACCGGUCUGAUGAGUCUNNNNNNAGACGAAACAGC

# Variants of: B1
# Test Name: FACS-Seq fitted mean relative fluorescence mCherry/BFP without ligand (log10 relative fluorescence); ligand: hypoxanthine (xanthine aptamer); higher = higher reporter protein expression
# Condition Notes: HEK293T, ligand present: no
Measure Name: FACS-Seq fitted mean (log10)

[Q] What does the data say about its FACS-Seq fitted mean (log10)? Entry: GCUCUG
[A] 0.3

[Q] What does the data say about its FACS-Seq fitted mean (log10)? Entry: GCGACG
[A] 0.442

[Q] What does the data say about its FACS-Seq fitted mean (log10)? Entry: UUAACG
[A] 0.325

[Q] What does the data say about its FACS-Seq fitted mean (log10)? Entry: UCCUGC
[A] 0.86

[Q] What does the data say about its FACS-Seq fitted mean (log10)? Entry: AAAAGU
[A] 0.21

[Q] What does the data say about its FACS-Seq fitted mean (log10)? Entry: GAGACA
[A] 0.311

[Q] What does the data say about its FACS-Seq fitted mean (log10)? Entry: CGGGCU
[A] 0.773

[Q] What does the data say about its FACS-Seq fitted mean (log10)? Entry: CAUUUC
[A] 0.66

[Q] What does the data say about its FACS-Seq fitted mean (log10)? Entry: AACCGG
[A] 0.0275

[Q] What does the data say about its FACS-Seq fitted mean (log10)? Entry: GAAUUC
[A] 0.407

[Q] What does the data say about its FACS-Seq fitted mean (log10)? Entry: AGGGUA
[A] 0.412

[Q] What does the data say about its FACS-Seq fitted mean (log10)? Entry: UAAAGU
[A] 0.334

[Q] What does the data say about its FACS-Seq fitted mean (log10)? Entry: GAAAGU
[A] 0.233

[Q] What does the data say about its FACS-Seq fitted mean (log10)? Entry: UCAAUC
[A] 0.398

[Q] What does the data say about its FACS-Seq fitted mean (log10)? Entry: UUCUGG
[A] 0.955

[Q] What does the data say about its FACS-Seq fitted mean (log10)? Entry: GACUAA
[A] 0.354

[Q] What does the data say about its FACS-Seq fitted mean (log10)? Entry: AACCAC
[A] 0.0153

[Q] What does the data say about its FACS-Seq fitted mean (log10)? Entry: GGAAAG
[A] 0.282

[Q] What does the data say about its FACS-Seq fitted mean (log10)? Entry: AUCCCG
[A] 0.0616

[Q] What does the data say about its FACS-Seq fitted mean (log10)? Entry: CUGAGA
[A] 0.665

[Q] What does the data say about its FACS-Seq fitted mean (log10)? Entry: AUGCAG
[A] 0.251

[Q] What does the data say about its FACS-Seq fitted mean (log10)? Entry: CGCCAG
[A] 0.462

[Q] What does the data say about its FACS-Seq fitted mean (log10)? Entry: GUGGAA
[A] 0.0876

[Q] What does the data say about its FACS-Seq fitted mean (log10)? Entry: GUAAGG
[A] 0.181

[Q] What does the data say about its FACS-Seq fitted mean (log10)? Entry: CAGAAA
[A] 0.22

[Q] What does the data say about its FACS-Seq fitted mean (log10)? Entry: AACGCU
[A] 0.624

[Q] What does the data say about its FACS-Seq fitted mean (log10)? Entry: CAUGAU
[A] 0.296

[Q] What does the data say about its FACS-Seq fitted mean (log10)? Entry: GCUUAA
[A] 0.221

[Q] What does the data say about its FACS-Seq fitted mean (log10)? Entry: UUGAAG
[A] 0.35

[Q] What does the data say about its FACS-Seq fitted mean (log10)? Entry: AGGAGU
[A] 0.142

[Q] What does the data say about its FACS-Seq fitted mean (log10)? Entry: UAAAGG
[A] 0.355

[Q] What does the data say about its FACS-Seq fitted mean (log10)? Entry: GUGCAC
[A] 0.516

[Q] What does the data say about its FACS-Seq fitted mean (log10)? Entry: GAUCAU
[A] 0.447

[Q] What does the data say about its FACS-Seq fitted mean (log10)? Entry: AAGAUA
[A] 0.32

[Q] What does the data say about its FACS-Seq fitted mean (log10)? Entry: UAGAGA
[A] -0.0593

[Q] What does the data say about its FACS-Seq fitted mean (log10)? Entry: GAAAUA
[A] 0.105

[Q] What does the data say about its FACS-Seq fitted mean (log10)? Entry: AGACGU
[A] 0.722

[Q] What does the data say about its FACS-Seq fitted mean (log10)? Entry: GAGACG
[A] 0.287

[Q] What does the data say about its FACS-Seq fitted mean (log10)? Entry: UCACCG
[A] 0.705

[Q] What does the data say about its FACS-Seq fitted mean (log10)? Entry: AUGAAU
[A] 0.418

[Q] What does the data say about its FACS-Seq fitted mean (log10)? Entry: GAAGCA
[A] 0.802

[Q] What does the data say about its FACS-Seq fitted mean (log10)? Entry: GGGAAG
[A] -0.183

[Q] What does the data say about its FACS-Seq fitted mean (log10)? Entry: AACGUC
[A] 0.221

[Q] What does the data say about its FACS-Seq fitted mean (log10)? Entry: ACGCAG
[A] -0.302

[Q] What does the data say about its FACS-Seq fitted mean (log10)? Entry: GUUUAG
[A] 0.256

[Q] What does the data say about its FACS-Seq fitted mean (log10)? Entry: CAUUAA
[A] 0.176

[Q] What does the data say about its FACS-Seq fitted mean (log10)? Entry: GGUGUG
[A] -0.123

[Q] What does the data say about its FACS-Seq fitted mean (log10)? Entry: CAAUGG
[A] -0.334

[Q] What does the data say about its FACS-Seq fitted mean (log10)? Entry: AAUAAA
[A] 0.416

[Q] What does the data say about its FACS-Seq fitted mean (log10)? Entry: UACGGA
[A] 0.543

[Q] What does the data say about its FACS-Seq fitted mean (log10)? Entry: AUUGCG
[A] -0.0459

[Q] What does the data say about its FACS-Seq fitted mean (log10)? Entry: GUCAGG
[A] 0.326

[Q] What does the data say about its FACS-Seq fitted mean (log10)? Entry: AAGGUA
[A] 0.0361

[Q] What does the data say about its FACS-Seq fitted mean (log10)? Entry: UCCAAG
[A] 0.264

[Q] What does the data say about its FACS-Seq fitted mean (log10)? Entry: ACCGCG
[A] 0.331

[Q] What does the data say about its FACS-Seq fitted mean (log10)? Entry: AGCUGA
[A] 0.203

[Q] What does the data say about its FACS-Seq fitted mean (log10)? Entry: UCGGUA
[A] 0.215

[Q] What does the data say about its FACS-Seq fitted mean (log10)? Entry: CACCAC
[A] 0.232

[Q] What does the data say about its FACS-Seq fitted mean (log10)? Entry: UCUCUG
[A] 0.0437

[Q] What does the data say about its FACS-Seq fitted mean (log10)? Entry: GGGCUA
[A] 0.512

[Q] What does the data say about its FACS-Seq fitted mean (log10)? Entry: UUUGUG
[A] 0.449

[Q] What does the data say about its FACS-Seq fitted mean (log10)? Entry: GAUACA
[A] 0.774

[Q] What does the data say about its FACS-Seq fitted mean (log10)? Entry: AUAAGU
[A] 0.122

[Q] What does the data say about its FACS-Seq fitted mean (log10)? Entry: ACGAAA
[A] 0.129

[Q] What does the data say about its FACS-Seq fitted mean (log10)? Entry: GAAAAG
[A] 0.326

[Q] What does the data say about its FACS-Seq fitted mean (log10)? Entry: AUAUUG
[A] 0.215

[Q] What does the data say about its FACS-Seq fitted mean (log10)? Entry: AGCAAC
[A] 0.133

[Q] What does the data say about its FACS-Seq fitted mean (log10)? Entry: UUGAGA
[A] 0.452

[Q] What does the data say about its FACS-Seq fitted mean (log10)? Entry: AACUAC
[A] 0.621

[Q] What does the data say about its FACS-Seq fitted mean (log10)? Entry: AACUGA
[A] -0.0809

[Q] What does the data say about its FACS-Seq fitted mean (log10)? Entry: ACUCGA
[A] 0.714

[Q] What does the data say about its FACS-Seq fitted mean (log10)? Entry: AGAGUA
[A] 0.529

[Q] What does the data say about its FACS-Seq fitted mean (log10)? Entry: GUGCAG
[A] 0.0446

[Q] What does the data say about its FACS-Seq fitted mean (log10)? Entry: ACCGCC
[A] 0.708

[Q] What does the data say about its FACS-Seq fitted mean (log10)? Entry: UCAUGA
[A] 0.457

[Q] What does the data say about its FACS-Seq fitted mean (log10)? Entry: AUGGGA
[A] 0.29

[Q] What does the data say about its FACS-Seq fitted mean (log10)? Entry: UGUAAG
[A] 0.327

[Q] What does the data say about its FACS-Seq fitted mean (log10)? Entry: AACGCG
[A] -0.0882

[Q] What does the data say about its FACS-Seq fitted mean (log10)? Entry: AAGCCA
[A] -0.28

[Q] What does the data say about its FACS-Seq fitted mean (log10)? Entry: UCUCAG
[A] 0.173

[Q] What does the data say about its FACS-Seq fitted mean (log10)? Entry: AAACCG
[A] 0.278

[Q] What does the data say about its FACS-Seq fitted mean (log10)? Entry: AAACCC
[A] 0.474

[Q] What does the data say about its FACS-Seq fitted mean (log10)? Entry: GAGAUA
[A] 0.345

[Q] What does the data say about its FACS-Seq fitted mean (log10)? Entry: GUACCG
[A] 0.26

[Q] What does the data say about its FACS-Seq fitted mean (log10)? Entry: UCUAGA
[A] 0.927

[Q] What does the data say about its FACS-Seq fitted mean (log10)? Entry: CAGCGU
[A] -0.166

[Q] What does the data say about its FACS-Seq fitted mean (log10)? Entry: UUGAGG
[A] 0.402

[Q] What does the data say about its FACS-Seq fitted mean (log10)? Entry: UCCAUG
[A] -0.135

[Q] What does the data say about its FACS-Seq fitted mean (log10)? Entry: UAAUUC
[A] 0.569

[Q] What does the data say about its FACS-Seq fitted mean (log10)? Entry: GAAUGA
[A] 0.481

[Q] What does the data say about its FACS-Seq fitted mean (log10)? Entry: CGAACC
[A] 0.676
